Attribution: PubChem BioAssay (NCI)

experiment: NCI Yeast Anticancer Drug Screen. Data for the mlh1 rad18 strain (AID 175); settings: S. cerevisiae mlh1 rad18 strain growth inhibition, hits give high values; at 50.0 µM unless noted
Compounds without any hit were thinned out: in the full panel of roughly 79,000, 15% have a hit.
experimental.endpoint: growth inhibition (%)
One number for each entry, in %.

Here is how some compounds turned out for growth inhibition.
compound: CO/N=C1/OC(=O)OCC1(c1ccccc1)c1ccccc1
observed.measurement: -3.3

compound: CCOC(=O)c1cc(C)ncc1N
observed.measurement: 3.3

compound: N=C(N)CCNC(=O)C1CCC(N)=N1 (centres undefined)
observed.measurement: -13.6

compound: O=C1c2ccccc2C(=O)N1/N=[N+](\[O-])c1ccccc1
observed.measurement: 40.8

Okay, here is my list. What is growth inhibition for each of these?
1. O=C1C2C(c3ccccc3)NC(c3ccccc3)C1C(c1ccccc1)NC2c1ccccc1 (centres undefined)
2. CCOC(=O)c1ccc(NC(=S)NC(=O)C(C)Oc2ccccc2)cc1 (centres undefined)
3. CCCCOC(c1ccccc1)c1ccccc1

Result block:
[0.9, 25.2, 1.95]

Return reported growth inhibition values for all items listed beneath this line.
1. CC(C)(O)CCNc1ncnc2c1ncn2C1OC(CO)C(O)C1O (centres undefined)
2. CCCNCCC
3. N=c1ccccn1CC(O)COc1ccc(Cl)cc1 (centres undefined)
4. O=C(O)CCSCCC(=O)O
5. COc1ccccc1NC(=O)C(/C=N/C(=S)NNC(C)=O)=C(/C)O

Result block:
13.8
1.65
-16.6
22.4
2.45

====

experiment: NCI Yeast Anticancer Drug Screen. Data for the cln2 rad14 strain (AID 165);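 note: 0% = growth equal to vehicle treated cultures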; conditions: S. cerevisiae cln2 rad14 strain, hits give high values; at 50.0 µM unless noted
About 79,000 compounds went through this panel and 15% of them were active in at least one assay; those are over-represented in the sample as a whole.
Please go through the items and note down their growth inhibition.
One number for each entry, in %.

Hi! Can you tell me growth inhibition for each of these compounds?
1. CC1CCC(c2cc(-c3ccccc3)n(-c3ccccc3)n2)CC1 (stereo not drawn)
2. CN(C)C(=O)Sc1ccc(C(C)(C)C)cc1
3. COC(=O)C(C)(N=Cc1ccccc1)c1ccccc1 (stereo not drawn)

Result block:
1. -26.4
2. -41.5
3. 17.4

====

experiment: NCI Yeast Anticancer Drug Screen. Data for the bub3 strain (AID 167); conditions: S. cerevisiae bub3 mutant strain, hits give high values; at 50.0 µM unless noted
About 79,000 compounds went through this panel and 15% of them were active in at least one assay; those are over-represented in the sample as a whole.
experimental.endpoint: growth inhibition (%)
Give bare numbers, in %.

Worked set:
compound: COC(=O)C(C)(N=Cc1ccccc1)c1ccccc1 (stereo unspecified)
u: %
growth inhibition: -9.75
--
compound: O.O.O=S(=O)(O)C(F)(F)F.[NH2-].[NH2-].[NH2-].[NH2-].[Ru+3]
u: %
growth inhibition: -27.4
--
compound: C/C=C1\CC2C=CC1C2 (stereo unspecified) (tested in a mixture with another compound)
u: %
growth inhibition: 11.6
--
compound: O=C(O)CNC(=O)CNC(=O)CNC(=O)C(CSC(c1ccccc1)(c1ccccc1)c1ccccc1)NC(=O)OCc1ccccc1 (stereo unspecified)
u: %
growth inhibition: 10.7
--
compound: C=CCOC(=O)CC(=C)C(=O)O
u: %
growth inhibition: 6.2

Query block: Find the recorded growth inhibition belonging to `Cc1cccc(C)c1NC(=O)CCc1nnc2s/c(=C\c3ccc(N(C)C)cc3)c(=O)n12` and report it.
Result block: 4.85
